Molecular target: T1, human IL1RAP (hu-IL1RAP) on human cells (human, UniProt Q9NPH3 21-570)
T1 sequence: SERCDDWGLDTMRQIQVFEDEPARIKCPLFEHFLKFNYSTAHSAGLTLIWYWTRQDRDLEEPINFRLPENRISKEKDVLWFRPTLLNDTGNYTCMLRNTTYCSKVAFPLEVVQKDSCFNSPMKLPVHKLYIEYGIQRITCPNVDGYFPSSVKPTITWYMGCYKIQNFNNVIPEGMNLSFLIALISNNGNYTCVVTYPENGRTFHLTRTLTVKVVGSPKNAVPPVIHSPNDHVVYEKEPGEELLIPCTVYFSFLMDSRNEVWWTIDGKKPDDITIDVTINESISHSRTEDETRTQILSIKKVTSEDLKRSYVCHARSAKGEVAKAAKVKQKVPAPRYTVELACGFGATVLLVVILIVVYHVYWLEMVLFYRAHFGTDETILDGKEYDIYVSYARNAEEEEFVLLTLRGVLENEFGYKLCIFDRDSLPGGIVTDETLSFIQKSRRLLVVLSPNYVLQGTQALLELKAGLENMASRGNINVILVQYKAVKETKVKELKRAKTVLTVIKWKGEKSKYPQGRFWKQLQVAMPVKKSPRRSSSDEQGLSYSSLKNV
Assay: cell-based or functional assay
HEK-Blue, IL-1β, IC50 (IgG) values by entry
measured.metric: HEK-Blue, IL-1β, IC50 (IgG)

1. K17 IgG (VL-A51Y/W92K) (antibody, V domains shown) VH: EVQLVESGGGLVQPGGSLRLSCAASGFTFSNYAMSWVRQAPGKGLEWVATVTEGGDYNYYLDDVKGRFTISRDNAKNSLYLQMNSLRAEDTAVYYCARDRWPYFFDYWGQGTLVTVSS VL: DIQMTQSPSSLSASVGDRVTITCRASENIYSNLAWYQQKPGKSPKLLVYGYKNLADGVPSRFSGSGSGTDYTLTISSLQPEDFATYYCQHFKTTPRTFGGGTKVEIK: 0.468 nM
2. h11C5 variant K13/H2 IgG (YID) (antibody, V domains shown, Human IgG1 N297G; also called 11C5-YID) VH: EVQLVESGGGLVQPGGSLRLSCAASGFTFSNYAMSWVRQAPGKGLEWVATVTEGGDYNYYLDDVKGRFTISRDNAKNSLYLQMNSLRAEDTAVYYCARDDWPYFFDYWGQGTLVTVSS VL: DIQMTQSPSSLSASVGDRVTITCRASENIYSNLAWYQQKPGKSPKLLVYGYKNLADGVPSRFSGSGSGTDYTLTISSLQPEDFATYYCQHFITTPRTFGGGTKVEIKR: 0.361 nM
3. K10/H3 IgG (VL-A51Y, VH-V51S) (antibody, V domains shown) VH: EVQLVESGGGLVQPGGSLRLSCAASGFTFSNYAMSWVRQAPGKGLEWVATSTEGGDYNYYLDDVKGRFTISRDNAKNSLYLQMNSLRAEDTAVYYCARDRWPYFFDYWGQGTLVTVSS VL: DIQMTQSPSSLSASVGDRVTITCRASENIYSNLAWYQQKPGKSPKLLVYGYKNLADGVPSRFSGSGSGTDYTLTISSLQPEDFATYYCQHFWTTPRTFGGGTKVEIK: 0.177 nM
4. K13 IgG (VL-A51Y/W92I) (antibody, V domains shown) VH: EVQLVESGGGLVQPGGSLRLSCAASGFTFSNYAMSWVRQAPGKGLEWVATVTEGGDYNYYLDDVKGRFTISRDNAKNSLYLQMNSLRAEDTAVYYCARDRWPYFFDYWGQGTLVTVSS VL: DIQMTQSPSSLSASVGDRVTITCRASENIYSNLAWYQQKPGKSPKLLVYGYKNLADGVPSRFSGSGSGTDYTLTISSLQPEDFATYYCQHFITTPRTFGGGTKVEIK: 0.332 nM
5. K10/H2 IgG (VL-A51Y, VH-R96D) (antibody, V domains shown) VH: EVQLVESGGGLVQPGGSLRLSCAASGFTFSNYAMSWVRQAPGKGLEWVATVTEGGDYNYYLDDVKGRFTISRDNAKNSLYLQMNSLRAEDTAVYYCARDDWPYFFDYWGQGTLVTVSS VL: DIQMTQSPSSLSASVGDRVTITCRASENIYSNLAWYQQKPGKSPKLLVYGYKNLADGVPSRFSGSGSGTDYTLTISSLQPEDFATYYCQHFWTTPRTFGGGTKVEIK: 0.285 nM

From: patent US20260015426A1
